target: human TRPM8 (Homo sapiens); test: Menthol-induced Ca2+ influx in HEK293 cells stably expressing human TRPM8; conditions: 30 microM menthol-induced Ca2+ influx, read-out: IC50 against TRPM8
Sequence (Q7Z2W7 whole entry): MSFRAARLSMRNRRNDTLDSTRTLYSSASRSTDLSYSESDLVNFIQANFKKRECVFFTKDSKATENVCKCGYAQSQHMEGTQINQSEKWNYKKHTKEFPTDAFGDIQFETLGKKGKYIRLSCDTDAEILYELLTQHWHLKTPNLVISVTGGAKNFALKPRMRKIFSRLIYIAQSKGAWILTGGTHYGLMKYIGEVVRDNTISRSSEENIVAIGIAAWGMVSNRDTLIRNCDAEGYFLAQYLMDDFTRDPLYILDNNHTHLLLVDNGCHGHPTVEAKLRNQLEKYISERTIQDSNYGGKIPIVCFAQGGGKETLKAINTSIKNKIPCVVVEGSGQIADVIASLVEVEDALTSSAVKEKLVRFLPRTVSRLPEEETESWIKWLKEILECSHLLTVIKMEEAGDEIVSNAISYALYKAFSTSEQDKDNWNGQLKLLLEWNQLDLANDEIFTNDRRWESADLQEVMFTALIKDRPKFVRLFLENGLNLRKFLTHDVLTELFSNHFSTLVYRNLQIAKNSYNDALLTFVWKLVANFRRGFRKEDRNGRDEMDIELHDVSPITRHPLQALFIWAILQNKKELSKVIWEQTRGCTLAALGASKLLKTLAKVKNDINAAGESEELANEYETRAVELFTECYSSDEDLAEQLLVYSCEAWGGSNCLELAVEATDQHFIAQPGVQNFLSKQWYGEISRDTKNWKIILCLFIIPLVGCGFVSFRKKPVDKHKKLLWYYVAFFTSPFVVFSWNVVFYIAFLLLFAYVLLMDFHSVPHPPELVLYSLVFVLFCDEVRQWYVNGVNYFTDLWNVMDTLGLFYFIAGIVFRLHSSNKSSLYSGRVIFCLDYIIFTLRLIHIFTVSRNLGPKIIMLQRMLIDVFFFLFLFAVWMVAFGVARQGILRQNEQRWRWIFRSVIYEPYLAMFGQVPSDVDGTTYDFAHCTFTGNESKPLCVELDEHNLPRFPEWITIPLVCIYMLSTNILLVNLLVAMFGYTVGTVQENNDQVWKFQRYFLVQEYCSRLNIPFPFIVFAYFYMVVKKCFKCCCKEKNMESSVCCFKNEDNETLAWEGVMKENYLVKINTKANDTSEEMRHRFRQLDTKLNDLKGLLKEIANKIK
pIC50: −log10 of the molar value.
For each entry below, report its pIC50 value.

## Task Please report the measured pIC50 for Cc1cccc(-c2c(C)sc(C(=O)CN3C(=O)NC4(CCC(F)(F)CC4)C3=O)c2C)c1 tested on human TRPM8 (Homo sapiens).
## Result > 6.30

## Task Please report the measured pIC50 for Cc1cc(C(=O)CN2C(=O)NC3(CCC(F)(F)CC3)C2=O)ccc1-c1cccc(F)c1 tested on human TRPM8 (Homo sapiens).
## Result > 7.00

## Task Please report the measured pIC50 for O=C(CN1C(=O)NC2(CCC(F)(F)CC2)C1=O)c1ccc(-c2nccn3ccnc23)cc1 tested on human TRPM8 (Homo sapiens).
## Result > 6.30

## Task Please report the measured pIC50 for N#Cc1ccnnc1Oc1ccc(C(=O)CN2C(=O)NC3(CCC(F)(F)CC3)C2=O)cc1 tested on human TRPM8 (Homo sapiens).
## Result > 7.00

## Task Please report the measured pIC50 for Cc1cc(C(=O)CN2C(=O)NC3(CCC(F)(F)CC3)C2=O)sc1-c1cccnc1C tested on human TRPM8 (Homo sapiens).
## Result > 7.00

## Task Please report the measured pIC50 for N#Cc1ccccc1-c1ccc(C(=O)CN2C(=O)NC3(CCC(F)(F)CC3)C2=O)cc1Cl tested on human TRPM8 (Homo sapiens).
## Result > 7.00

## Task Please report the measured pIC50 for Cc1cccc(-n2c(C)cc(C(=O)CN3C(=O)NC4(CCC(C(F)(F)F)CC4)C3=O)c2C)n1 (stereo not shown) tested on human TRPM8 (Homo sapiens).
## Result > 7.00

## Task Please report the measured pIC50 for Cc1ccccc1-c1sc(C(=O)CN2C(=O)NC3(CCC(F)(F)CC3)C2=O)cc1C tested on human TRPM8 (Homo sapiens).
## Result > 7.00

## Task Please report the measured pIC50 for O=C(CN1C(=O)NC2(CCC(F)(F)CC2)C1=O)c1ccc(Oc2cncnc2)cc1 tested on human TRPM8 (Homo sapiens).
## Result > 6.30

## Task Please report the measured pIC50 for Cc1cnc(C)c(-c2ccc(C(=O)CN3CC4(CCC(F)(F)CC4)OC3=O)cc2)n1 tested on human TRPM8 (Homo sapiens).
## Result > 6.30

## Task Please report the measured pIC50 for N#Cc1cccc(Oc2ccc(C(=O)CN3C(=O)NC4(CCC(F)(F)CC4)C3=O)cn2)c1 tested on human TRPM8 (Homo sapiens).
## Result > 7.00

## Task Please report the measured pIC50 for O=C(CN1C(=O)NC2(CCC(F)(F)CC2)C1=O)c1cnc(-c2cccc3cccnc23)cn1 tested on human TRPM8 (Homo sapiens).
## Result > 7.00

## Task Please report the measured pIC50 for O=C(CN1C(=O)NC2(CCC(F)(F)CC2)C1=O)c1ccc(-c2cccnc2)nc1 tested on human TRPM8 (Homo sapiens).
## Result > 7.00

## Task Please report the measured pIC50 for Cc1cncc(-c2ccc(C(=O)CN3C(=O)NC4(CCC(F)(F)CC4)C3=O)cc2)n1 tested on human TRPM8 (Homo sapiens).
## Result > 7.00

## Task Please report the measured pIC50 for O=C(CN1C(=O)NC2(CCCCC2)C1=O)c1ccc(-c2ccccc2)cc1F tested on human TRPM8 (Homo sapiens).
## Result > 7.00

## Task Please report the measured pIC50 for Cc1c(C(=O)CN2C(=O)NC3(CCC(F)(F)CC3)C2=O)nn(C)c1-c1ccccc1 tested on human TRPM8 (Homo sapiens).
## Result > 7.00
